- target: T1, rHuman HGF R/c-MET/Fc Chimera, CF (R&D Systems Cat#358-MT/CF) (human, UniProt P08581 25-932)
- T1 construct: Bought recombinant protein; also called HGF R/Fc; hepatocyte growth factor receptor
- T1 sequence (P08581 25-932, change not shown): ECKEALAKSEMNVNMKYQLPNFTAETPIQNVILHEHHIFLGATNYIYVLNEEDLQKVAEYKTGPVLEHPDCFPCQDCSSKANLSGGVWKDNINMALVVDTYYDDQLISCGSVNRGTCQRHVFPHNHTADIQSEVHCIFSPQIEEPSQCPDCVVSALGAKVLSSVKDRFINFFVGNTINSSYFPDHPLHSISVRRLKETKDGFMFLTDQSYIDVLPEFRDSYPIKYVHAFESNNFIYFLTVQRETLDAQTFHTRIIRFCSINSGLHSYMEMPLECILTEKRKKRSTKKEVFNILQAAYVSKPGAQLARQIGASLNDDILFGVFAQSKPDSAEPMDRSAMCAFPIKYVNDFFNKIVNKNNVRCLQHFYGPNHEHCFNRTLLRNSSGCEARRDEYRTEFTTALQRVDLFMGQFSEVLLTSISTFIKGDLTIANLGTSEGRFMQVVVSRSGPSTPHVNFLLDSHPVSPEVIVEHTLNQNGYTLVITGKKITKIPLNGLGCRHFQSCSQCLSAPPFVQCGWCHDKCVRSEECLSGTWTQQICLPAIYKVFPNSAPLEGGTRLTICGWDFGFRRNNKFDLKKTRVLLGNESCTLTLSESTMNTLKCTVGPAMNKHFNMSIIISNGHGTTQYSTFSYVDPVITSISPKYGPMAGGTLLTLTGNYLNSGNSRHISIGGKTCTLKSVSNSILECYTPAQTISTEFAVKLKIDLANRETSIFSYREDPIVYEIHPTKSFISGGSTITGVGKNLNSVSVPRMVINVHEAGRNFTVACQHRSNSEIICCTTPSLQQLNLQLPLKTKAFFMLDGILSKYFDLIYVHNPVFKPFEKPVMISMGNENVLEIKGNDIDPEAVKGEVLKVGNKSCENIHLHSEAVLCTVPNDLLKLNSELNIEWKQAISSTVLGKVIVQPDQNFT
- test: ECL multispot (MSD) binding assay, antigen spotted on plate;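 further: purified Fab incubated 1 h at 20 °C on antigen spots, detected with TAG-labelled antibody, electrochemiluminescence compared with each well's blank, signal-to-blank ratio ≥4 counted as hit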
measurement_name: ECL signal
Please reply with the value in numeric form only.

binder	measurement_name	obs_value
Fab VH1-46_IGHD6-6*01_IGHJ1*01 S102A/S103P/S104F/H111F (APFF) & L6_IGKJ1*01 S31L (Fab, V domains shown, Tested as Fab (CH1 with His6/Flag tags, kappa CL) made in E. coli; also called APFF / S31L) VH: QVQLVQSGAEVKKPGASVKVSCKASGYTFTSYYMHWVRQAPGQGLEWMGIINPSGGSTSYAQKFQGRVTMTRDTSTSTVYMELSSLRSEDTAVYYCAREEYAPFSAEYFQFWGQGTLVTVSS VL: EIVLTQSPATLSLSPGERATLSCRASQSVSLYLAWYQQKPGQAPRLLIYDASNRATGIPARFSGSGSGTDFTLTISSLEPEDFAVYYCQQRSNWPPWTFGQGTKVEIKR	ECL signal	319
Fab VH1-46_IGHD6-6*01_IGHJ1*01 S102A/S103P/S104F/H111F (APFF) & L6_IGKJ1*01 S31F (Fab, V domains shown, Tested as Fab (CH1 with His6/Flag tags, kappa CL) made in E. coli; also called APFF / S31F) VH: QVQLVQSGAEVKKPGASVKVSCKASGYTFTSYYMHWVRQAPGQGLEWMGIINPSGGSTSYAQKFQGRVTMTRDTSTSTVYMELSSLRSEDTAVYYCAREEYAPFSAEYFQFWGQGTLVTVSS VL: EIVLTQSPATLSLSPGERATLSCRASQSVSFYLAWYQQKPGQAPRLLIYDASNRATGIPARFSGSGSGTDFTLTISSLEPEDFAVYYCQQRSNWPPWTFGQGTKVEIKR	ECL signal	280
Fab VH1-46_IGHD6-6*01_IGHJ1*01 S102A/S103P/S104F/H111F (APFF) & L6_IGKJ1*01 S31A (Fab, V domains shown, Tested as Fab (CH1 with His6/Flag tags, kappa CL) made in E. coli; also called APFF / S31A) VH: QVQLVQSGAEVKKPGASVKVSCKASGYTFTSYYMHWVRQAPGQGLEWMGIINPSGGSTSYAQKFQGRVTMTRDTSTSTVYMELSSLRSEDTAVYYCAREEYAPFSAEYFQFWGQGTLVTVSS VL: EIVLTQSPATLSLSPGERATLSCRASQSVSAYLAWYQQKPGQAPRLLIYDASNRATGIPARFSGSGSGTDFTLTISSLEPEDFAVYYCQQRSNWPPWTFGQGTKVEIKR	ECL signal	309

Q: Which ECL signal value is on record for Fab VH1-46_IGHD6-6*01_IGHJ1*01 S102A/S103P/S104F/H111F (APFF) & L6_IGKJ1*01 S31M (Fab, V domains shown, Tested as Fab (CH1 with His6/Flag tags, kappa CL) made in E. coli; also called APFF / S31M) VH: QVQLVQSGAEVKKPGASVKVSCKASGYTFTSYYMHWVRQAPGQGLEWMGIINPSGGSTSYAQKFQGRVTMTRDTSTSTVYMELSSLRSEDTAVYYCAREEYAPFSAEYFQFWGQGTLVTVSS VL: EIVLTQSPATLSLSPGERATLSCRASQSVSMYLAWYQQKPGQAPRLLIYDASNRATGIPARFSGSGSGTDFTLTISSLEPEDFAVYYCQQRSNWPPWTFGQGTKVEIKR ?
A: 293

Q: Which ECL signal value is on record for Fab VH1-46_IGHD6-6*01_IGHJ1*01 S102A/S103P/S104F/H111F (APFF) & L6_IGKJ1*01 S31D (Fab, V domains shown, Tested as Fab (CH1 with His6/Flag tags, kappa CL) made in E. coli; also called APFF / S31D) VH: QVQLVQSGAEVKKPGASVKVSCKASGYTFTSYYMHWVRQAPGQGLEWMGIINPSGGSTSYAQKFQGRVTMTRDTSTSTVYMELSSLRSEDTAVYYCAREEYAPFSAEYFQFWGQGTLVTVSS VL: EIVLTQSPATLSLSPGERATLSCRASQSVSDYLAWYQQKPGQAPRLLIYDASNRATGIPARFSGSGSGTDFTLTISSLEPEDFAVYYCQQRSNWPPWTFGQGTKVEIKR ?
A: 429
